These data points were gathered from paper PMC11096398.

# assaySummary: pKa determination by titration with HCl (Gran plot)
# Type: physicochemical
# appliedConditions: solution of the compound titrated with 0.01 M HCl, n = 4
metricName: pKa
One number for each entry.

**Query** Recorded pKa of Nc1ccncc1 , please.
**Result** 9.19

----------
# assaySummary: pKa determination by titration with HCl (Gran plot)
# Type: physicochemical
# appliedConditions: compound solution titrated with 0.01 M HCl, n = 4
metricName: pKa

# molecule, metricName, observed
measured = [
    ("Cc1cnccc1N [3Me4AP, 3-methyl-4AP]", "pKa", "> 9"),
]

Let us examine a further case.
**Query** Recorded pKa of Nc1ccncc1 [4AP, 4-aminopyridine] , please.
**Result** > 9
